target: kappa opiate receptor (Cavia porcellus, UniProt P41144); construct: guinea pig cortices and cerebella were homogenized in 40 mL of Buffer A; from tissue; host or cells: guinea pig cortices and cerebella, crude membrane suspension; assay: Inhibition of tritiated U69,593 binding to the kappa opiate receptor in guinea pig brain homogenates; details: [3H]U69,593 bound; 3 nm tritiated U69,593, guinea pig brain membranes
Sequence (P41144 whole entry): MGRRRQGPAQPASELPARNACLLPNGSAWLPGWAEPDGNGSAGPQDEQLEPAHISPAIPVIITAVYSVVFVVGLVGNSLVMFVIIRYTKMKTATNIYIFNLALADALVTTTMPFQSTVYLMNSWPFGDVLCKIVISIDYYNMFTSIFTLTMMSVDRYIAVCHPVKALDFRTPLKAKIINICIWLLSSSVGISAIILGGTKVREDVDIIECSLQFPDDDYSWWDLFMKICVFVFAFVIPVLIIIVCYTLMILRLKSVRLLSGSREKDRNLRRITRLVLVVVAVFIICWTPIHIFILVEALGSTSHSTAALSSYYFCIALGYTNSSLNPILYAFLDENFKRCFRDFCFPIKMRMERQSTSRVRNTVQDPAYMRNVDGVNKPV
measurement_kind: % Bound (%)
// note: answer is a bare numeric in %

For the molecule CC(C)c1nc(Cc2ccccc2)n2c1NC(=O)C2C(C)C (racemic) , report % Bound. 73.451

Let me know recorded % Bound for CCCCc1nc(C)n2c1NC(=O)C2C(C)C (stereo not drawn) [Pool 44] , thanks. 110.299

Give a short answer stating reported % Bound for CC(C)c1nc(C2CCCC2)n2c1NC(=O)C2C(C)C (stereo not drawn) . 61.501

Answer with the recorded % Bound of CCCCC1C(=O)Nc2c(C(C)C)nc(C)n21 (stereo not drawn) [Pool 27] only. 79.855

Write down % Bound measured for item CC(C)c1nc(Cc2ccc(F)cc2)n2c1NC(=O)C2C(C)C (racemic) 71.134

Give the value of % Bound reported for the following: CC(C)c1nc(CC(C)(C)C)n2c1NC(=O)C2C(C)C (stereo not drawn) 80.589

Kindly indicate its recorded % Bound. Item: Cc1nc(C(C)C)c2n1C(C)C(=O)N2 (stereo not drawn) 88.016

Identify the reported % Bound for the following entry. CCCc1nc(C)n2c1NC(=O)C2C(C)C (stereo not drawn) [Pool 45] 85.275

----------
target: mu opiate receptor (Rattus norvegicus, UniProt P33535); construct: from tissue; host or cells: rat brain membranes/homogenate; assay: Inhibition of [3H]DAMGO binding to the mu opiate receptor in rat brain homogenates; details: percent inhibition of DAMGO binding; 0.08 mg of compound per milliliter, 7 nM 3H-labeled DAMGO, rat brain membranes
Sequence (P33535 whole entry): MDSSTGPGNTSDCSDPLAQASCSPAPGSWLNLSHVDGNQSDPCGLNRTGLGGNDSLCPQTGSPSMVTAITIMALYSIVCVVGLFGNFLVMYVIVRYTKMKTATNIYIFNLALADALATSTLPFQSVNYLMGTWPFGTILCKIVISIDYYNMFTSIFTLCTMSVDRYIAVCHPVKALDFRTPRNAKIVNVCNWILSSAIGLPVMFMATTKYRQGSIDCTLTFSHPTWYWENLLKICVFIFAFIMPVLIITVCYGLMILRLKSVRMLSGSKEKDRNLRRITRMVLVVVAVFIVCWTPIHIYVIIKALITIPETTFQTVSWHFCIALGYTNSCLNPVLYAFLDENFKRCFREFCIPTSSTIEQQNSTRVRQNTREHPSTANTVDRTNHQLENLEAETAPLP
measurement_kind: % Inhibition (%)
Number in %, nothing else.

{"molecule": "CC(C)c1nc(C(C2CCCCC2)C2CCCCC2)n2c1NC(=O)C2C(C)C (centres unmarked)", "tested_system": "mu opiate receptor (Rattus norvegicus, UniProt P33535)", "measurement_kind": "% Inhibition", "value_observed": 35}
{"molecule": "Cc1nc(C)n2c1NC(=O)C2C(C)C (centres unmarked) [Pool 51]", "tested_system": "mu opiate receptor (Rattus norvegicus, UniProt P33535)", "measurement_kind": "% Inhibition", "value_observed": 38}
{"molecule": "Cc1nc(CC(C)C)c2n1C(C(C)C)C(=O)N2 (centres unmarked) [Pool 53]", "tested_system": "mu opiate receptor (Rattus norvegicus, UniProt P33535)", "measurement_kind": "% Inhibition", "value_observed": 29}
{"molecule": "Cc1nc(C(C)C)c2n1C(CC(C)C)C(=O)N2 (centres unmarked) [Pool 4]", "tested_system": "mu opiate receptor (Rattus norvegicus, UniProt P33535)", "measurement_kind": "% Inhibition", "value_observed": 30}
{"molecule": "CC(C)c1nc(C2CCCCC2)n2c1NC(=O)C2C(C)C (centres unmarked)", "tested_system": "mu opiate receptor (Rattus norvegicus, UniProt P33535)", "measurement_kind": "% Inhibition", "value_observed": 34}

Report % Inhibition for CC(C)CCc1nc(C(C)C)c2n1C(C(C)C)C(=O)N2 (centres unmarked) 37

Look up and state reported % Inhibition for Cc1nc(C(C)C)c2n1C(C(C)C)C(=O)N2 (centres unmarked) [Pool 52] 32

Give the measured % Inhibition for CC(C)c1nc(CCCC2CCCCC2)n2c1NC(=O)C2C(C)C (centres unmarked) 68
